Source of measurements: ChEMBL document CHEMBL1671858

Entries and their fold change (FC)
- Test system: Escherichia coli
- run.description: Antimicrobial activity against Escherichia coli isolate CQ7 transconjugant harboring 16S rRNA methylase RmtB and qepA, qnrS2, aac(6')-Ib-cr gene by agar dilution method relative to recipient strain
- Format: functional
// response body must contain only the number

Please review the following examples before continuing.
# chemical.string, fold change (FC)
records = [
    ("CCN1CCN(c2cc3c(cc2F)c(=O)c(C(=O)O)cn3C2CC2)CC1", 2),
    ("C[C@H]1COc2c(N3CCN(C)CC3)c(F)cc3c(=O)c(C(=O)O)cn1c23.C[C@H]1COc2c(N3CCN(C)CC3)c(F)cc3c(=O)c(C(=O)O)cn1c23.O", 1),
    ("CCn1cc(C(=O)O)c(=O)c2ccc(C)nc21", 1),
]

I'd like to know its fold change (FC). The compound in question is CCn1cc(C(=O)O)c(=O)c2cc(F)c(N3CCNCC3)cc21 16

---

- Test system: Escherichia coli
- run.description: Antimicrobial activity against Escherichia coli isolate CQ5 transconjugant harboring 16S rRNA methylase RmtB and qepA by agar dilution method relative to recipient strain
- Assay type: functional
Entries and their fold change (FC)
// response body must contain only the number

# compound, fold change (FC)
records = [
    ("CCn1cc(C(=O)O)c(=O)c2ccc(C)nc21 [NALIDIXIC ACID]", 1),
    ("CCn1cc(C(=O)O)c(=O)c2cc(F)c(N3CCNCC3)cc21 [NORFLOXACIN]", 16),
    ("C[C@H]1COc2c(N3CCN(C)CC3)c(F)cc3c(=O)c(C(=O)O)cn1c23.C[C@H]1COc2c(N3CCN(C)CC3)c(F)cc3c(=O)c(C(=O)O)cn1c23.O [LEVOFLOXACIN]", 1),
]

Consider the record given below.
I'd like to know its fold change (FC). The compound in question is CCN1CCN(c2cc3c(cc2F)c(=O)c(C(=O)O)cn3C2CC2)CC1 [ENROFLOXACIN] 2

---

- Tested on: Escherichia coli
- run.description: Antimicrobial activity against Escherichia coli isolate CQ1 transconjugant harboring 16S rRNA methylase RmtB and qnrB6 by agar dilution method relative to recipient strain
- Assay type: functional
experimental.readout: fold change (FC)
// response body must contain only the number

Please review the following examples before continuing.
# chemical.string, fold change (FC)
data = [
    ("CCn1cc(C(=O)O)c(=O)c2ccc(C)nc21", 2),
    ("CCn1cc(C(=O)O)c(=O)c2cc(F)c(N3CCNCC3)cc21", 2),
]

I'd like to know its fold change (FC). The compound in question is CCN1CCN(c2cc3c(cc2F)c(=O)c(C(=O)O)cn3C2CC2)CC1 1

I'd like to know its fold change (FC). The compound in question is C[C@H]1COc2c(N3CCN(C)CC3)c(F)cc3c(=O)c(C(=O)O)cn1c23.C[C@H]1COc2c(N3CCN(C)CC3)c(F)cc3c(=O)c(C(=O)O)cn1c23.O 1

---

Entries and their fold change (FC)
- Tested on: Escherichia coli
- run.description: Antimicrobial activity against Escherichia coli isolate CQ6 transconjugant harboring 16S rRNA methylase RmtB and qepA, qnrS2, aac(6')-Ib-cr gene by agar dilution method relative to recipient strain
- Format: functional
// response body must contain only the number

I'd like to know its fold change (FC). The compound in question is C[C@H]1COc2c(N3CCN(C)CC3)c(F)cc3c(=O)c(C(=O)O)cn1c23.C[C@H]1COc2c(N3CCN(C)CC3)c(F)cc3c(=O)c(C(=O)O)cn1c23.O 4
